Source of measurements: PubChem BioAssay (NCI)

Tested on: HCT-116 colon
Assay Name: NCI-60 one-dose screen, 48 h (100 = growth as untreated, 0 = no growth, -100 = all killed)
Condition Description: 10 µM unless noted
Compounds without any hit were thinned out: in the full panel of roughly 83,000, 20% have a hit. Active and inactive are the calls of the source. How the source made its calls: active means growth percent below 10; inactive means the rest.
In this section we review reported growth values for a set of compounds.

Examples with their reported growth follow.
CCCCCCCC[C@@H]1N[C@@H](C(=O)OC)Cc2c1[nH]c1ccccc21: 95.7% (inactive)
Cc1ccccc1/C=C/C(=O)c1cccc(OCCCOc2cccc(C(=O)/C=C/c3ccccc3C)c2)c1: 38.2% [3 µM] (inactive)
COc1cc2c(cc1OCCCN1CCN(CCCOc3cc4c(cc3OC)C(=O)N3CC(F)(F)C[C@H]3C=N4)CC1)N=C[C@@H]1CC(F)(F)CN1C2=O: 62% (inactive)
CCOC(=O)c1ccc(NC(=O)c2nc(-c3cc(OC)c(OC)c(OC)c3)n(-c3ccc(Cl)cc3)n2)cc1: 87.8% (inactive)
COc1ccc(C(=O)c2cc3c(N)c(C(=O)Nc4ccc(C)cc4)sc3nc2C)cc1: 16.2% (inactive)

Determine its reported growth: O=C(CSc1oc(-c2ccccc2)nc1S(=O)(=O)c1ccccc1)Nc1ccc(F)cc1
52.6% (inactive)

Determine its reported growth: COc1ccc(Nc2nc(-c3cc(O)c(C)c(C)c3O)cs2)cc1
82.5% (inactive)

Determine its reported growth: O=C(Nc1ccc(OS(=O)(=O)c2ccc(F)cc2)cc1)C1CCCCCC1
84.5% (inactive)

* * *

System: SNB-75 CNS
Assay Name: NCI-60 one-dose screen, 48 h
Condition Description: 10 µM unless noted
This is part of a sample that, as a whole, favours compounds with a hit. Of some 83,000 tested, about 20% had one in any assay. Active and inactive are the calls of the source. Rule for the calls: active = growth percent below 10; inactive = the rest.
Give your call using only these classes: YES for active, NO for inactive

Answered cases to consult:
CCCCCOC(=O)c1c(C)[nH]c(/C=C2\N=C(c3ccc[nH]3)C=C2OC)c1C: YES
CCC(C)N(CCNc1cc(OC)cc2cccnc12)CC(C)C (stereo not given): NO
Cc1cc(C(=O)O)c(C)n1-c1cccc(C(=O)O)c1: NO
COc1ccc(-c2nc3cc(C(=O)NCc4ccccc4)ccc3n2C2CCCCC2)cc1: NO

Kindly consider the entry below.
What did this assay record as the result for O=C(O)c1ccc(-n2cc(/C=N/Nc3ccccc3)c(-c3ccc(F)cc3F)n2)cc1 ?
NO

* * *

Tested on: SF-268 CNS
Assay Name: NCI-60 one-dose screen, 48 h
Condition Description: 10 µM unless noted
About 83,000 compounds went through this panel and 20% of them were active in at least one assay; those are over-represented in the sample as a whole. Calls of active or inactive are those of the source. The calls were made as follows: active = growth percent below 10; inactive = the rest.
Give your call using only these classes: active, inactive

What did this assay record as the result for O=C(/C=C/c1ccccc1)Nc1ncc(Cc2ccccc2Cl)s1 ?
inactive

What did this assay record as the result for O=C(Nc1nc2ccccc2s1)c1ccc(F)cc1 ?
inactive

What did this assay record as the result for N=C(N)c1ccc(-c2ccc(-c3ccccc3)o2)cc1 ?
active

What did this assay record as the result for CCN(CC)Cc1cc(C=C2C(=O)NC(=S)NC2=O)cc(OC)c1O ?
inactive

What did this assay record as the result for CC(O)(c1ccccc1)C(c1ccccc1)C1CCCCN1 (stereo not given) ?
inactive

What did this assay record as the result for CCOC(=O)c1c(NC(=O)c2cccc(C(F)(F)F)c2)sc2c(CN(C)C)c(O)ccc12 ?
inactive

What did this assay record as the result for C=CCSc1nnc(NC(=O)CCl)s1 ?
inactive

What did this assay record as the result for CSc1nc2ccccc2cc1/C=C1/C=C(c2ccccc2)NC1=O ?
inactive

What did this assay record as the result for C=C(C)[C@@H]1CC[C@]2(C(=O)N3CCOCC3)CC[C@]3(C)[C@H](CC[C@@H]4[C@@]5(C)C/C(=C/c6ccncc6)C(=O)C(C)(C)[C@@H]5CC[C@]43C)[C@@H]12 ?
inactive

What did this assay record as the result for CCC(=C(c1ccc(OCCN2CCCCC2)cc1)c1ccc(OCCN2CCCCC2)cc1)c1ccc(Cl)cc1 ?
active
